MEASURED_ON: human α1D‐adrenoceptor (full length) (Homo sapiens, UniProt P25100)
Construct: human α1D‐adrenoceptor (full length) were used; expressed in transfected cells; host or cells: CHO-K1
Sequence (P25100 whole entry): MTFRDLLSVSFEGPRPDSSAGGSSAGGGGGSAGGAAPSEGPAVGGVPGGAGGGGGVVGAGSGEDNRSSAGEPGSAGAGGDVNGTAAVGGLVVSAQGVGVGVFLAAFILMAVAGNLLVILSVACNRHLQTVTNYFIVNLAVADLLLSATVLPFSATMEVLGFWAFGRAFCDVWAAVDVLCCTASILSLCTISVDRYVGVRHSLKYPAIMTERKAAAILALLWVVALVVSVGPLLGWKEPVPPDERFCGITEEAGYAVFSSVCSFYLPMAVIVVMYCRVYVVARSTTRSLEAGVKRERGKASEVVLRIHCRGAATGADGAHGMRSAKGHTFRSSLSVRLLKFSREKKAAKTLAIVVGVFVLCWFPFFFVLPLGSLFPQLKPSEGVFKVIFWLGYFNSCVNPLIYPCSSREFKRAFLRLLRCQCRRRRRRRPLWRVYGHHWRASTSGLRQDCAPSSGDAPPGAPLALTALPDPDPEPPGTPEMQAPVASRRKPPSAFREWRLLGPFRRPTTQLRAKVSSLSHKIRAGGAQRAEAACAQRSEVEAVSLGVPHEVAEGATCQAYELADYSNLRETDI
PROCEDURE_SUMMARY: ERK1/2‐phosphorylation (Surefire Alphascreen), CHO‐α1D cells
Format: cell-based
TEST_SETTINGS: CHO‐α1D cells; maximal response as % of PDBu
Response field label takes true (1) when ERK1/2‐phosphorylation % PDBu is strictly below 20% and false (0) in all other cases.

>  <COMPOUND>
c1ccc(C2CC2)c(OCC2=NCCN2)c1

>  <LABEL_CLASS>
false (0)

$$$$
>  <COMPOUND>
CNC[C@H](O)c1cccc(O)c1

>  <LABEL_CLASS>
true (1)

$$$$
>  <COMPOUND>
Cc1cc(C(C)(C)C)c(O)c(C)c1CC1=NCCN1

>  <LABEL_CLASS>
false (0)

$$$$
>  <COMPOUND>
O=C1CC2(CCCC2)CC(=O)N1CCCCN1CCN(c2ncccn2)CC1

>  <LABEL_CLASS>
true (1)

$$$$

API: the following record is the query input.
Does CC(C)NCC(O)c1ccc(O)c(O)c1 (centres unmarked) have ERK1/2‐phosphorylation % PDBu strictly under 20%?
true (1)
